Origin of the recorded values: patent US20110195911A1

Biological target: Insulin-like growth factor 1 receptor (IGF1R) (UniProt P08069 31-1367, limits assumed)
Sequence (P08069 31-1367 limits assumed): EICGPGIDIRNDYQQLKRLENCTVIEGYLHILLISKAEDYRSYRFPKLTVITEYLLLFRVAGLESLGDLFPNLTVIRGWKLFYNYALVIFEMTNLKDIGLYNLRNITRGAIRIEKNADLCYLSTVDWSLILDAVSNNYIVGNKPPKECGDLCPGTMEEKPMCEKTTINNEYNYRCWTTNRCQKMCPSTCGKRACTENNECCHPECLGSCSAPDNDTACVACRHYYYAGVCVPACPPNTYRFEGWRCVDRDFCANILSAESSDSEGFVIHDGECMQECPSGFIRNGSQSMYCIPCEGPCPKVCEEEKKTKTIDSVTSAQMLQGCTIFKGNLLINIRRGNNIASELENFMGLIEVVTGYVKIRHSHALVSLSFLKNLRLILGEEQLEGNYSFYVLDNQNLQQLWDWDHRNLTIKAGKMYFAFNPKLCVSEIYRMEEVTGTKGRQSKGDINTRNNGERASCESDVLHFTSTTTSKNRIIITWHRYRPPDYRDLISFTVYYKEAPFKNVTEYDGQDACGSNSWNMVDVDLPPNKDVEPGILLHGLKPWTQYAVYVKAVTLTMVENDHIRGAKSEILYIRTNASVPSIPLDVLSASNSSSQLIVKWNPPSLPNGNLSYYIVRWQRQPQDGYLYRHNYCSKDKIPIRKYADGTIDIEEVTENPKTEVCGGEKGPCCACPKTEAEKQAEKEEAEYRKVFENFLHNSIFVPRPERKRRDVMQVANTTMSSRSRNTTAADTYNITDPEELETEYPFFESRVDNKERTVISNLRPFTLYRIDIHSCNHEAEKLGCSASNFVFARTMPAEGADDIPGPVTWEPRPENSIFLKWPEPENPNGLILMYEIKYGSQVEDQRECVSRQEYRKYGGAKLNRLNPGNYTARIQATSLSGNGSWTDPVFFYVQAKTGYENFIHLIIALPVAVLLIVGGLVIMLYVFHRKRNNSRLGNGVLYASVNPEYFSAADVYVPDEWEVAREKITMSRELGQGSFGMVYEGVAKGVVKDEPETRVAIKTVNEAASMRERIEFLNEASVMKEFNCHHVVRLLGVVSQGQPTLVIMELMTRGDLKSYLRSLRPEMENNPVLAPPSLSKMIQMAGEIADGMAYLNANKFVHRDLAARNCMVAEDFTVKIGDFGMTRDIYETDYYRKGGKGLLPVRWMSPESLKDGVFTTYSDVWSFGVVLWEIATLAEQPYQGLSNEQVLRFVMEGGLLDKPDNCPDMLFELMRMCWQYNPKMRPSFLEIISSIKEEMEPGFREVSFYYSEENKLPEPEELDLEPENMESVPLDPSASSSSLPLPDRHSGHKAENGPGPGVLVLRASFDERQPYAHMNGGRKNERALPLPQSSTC
Assay: cell-based or functional assay
The star is where a group is joined. Palmitoyl = CCCCCCCCCCCCCCCC(=O)*
Overview of reported GI50 (µM), MTT assay, MCF-7 cells across a group of binders:
Expressed in µM, but write only the number.

| binder | GI50 (µM), MTT assay, MCF-7 cells |
| --- | --- |
| Palmitoyl-HRKRNNSRLG-NH2 (SMILES CCCCCCCCCCCCCCCC(=O)N[C@@H](Cc1c[nH]cn1)C(=O)N[C@@H](CCCNC(=N)N)C(=O)N[C@@H](CCCCN)C(=O)N[C@@H](CCCNC(=N)N)C(=O)N[C@@H](CC(N)=O)C(=O)N[C@@H](CC(N)=O)C(=O)N[C@@H](CO)C(=O)N[C@@H](CCCNC(=N)N)C(=O)N[C@@H](CC(C)C)C(=O)NCC(N)=O) [peptide 2 (Pal-HRKRNNSRLG-NH2)] | 1.3 |

Please find the next binder below.
# GI50 (µM), MTT assay, MCF-7 cells lookup, item Palmitoyl-HRKRNNSRLGNGVLYAS-NH2 (SMILES CCCCCCCCCCCCCCCC(=O)N[C@@H](Cc1c[nH]cn1)C(=O)N[C@@H](CCCNC(=N)N)C(=O)N[C@@H](CCCCN)C(=O)N[C@@H](CCCNC(=N)N)C(=O)N[C@@H](CC(N)=O)C(=O)N[C@@H](CC(N)=O)C(=O)N[C@@H](CO)C(=O)N[C@@H](CCCNC(=N)N)C(=O)N[C@@H](CC(C)C)C(=O)NCC(=O)N[C@@H](CC(N)=O)C(=O)NCC(=O)N[C@H](C(=O)N[C@@H](CC(C)C)C(=O)N[C@@H](Cc1ccc(O)cc1)C(=O)N[C@@H](C)C(=O)N[C@@H](CO)C(N)=O)C(C)C) [peptide 7 (Pal-HRKRNNSRLGNGVLYAS-NH2)]
1.45
